Data origin: ChEMBL document CHEMBL1250440

- measuredOn: RAC-alpha serine/threonine-protein kinase (Homo sapiens, UniProt P31749)
- Sequence (P31749 whole entry): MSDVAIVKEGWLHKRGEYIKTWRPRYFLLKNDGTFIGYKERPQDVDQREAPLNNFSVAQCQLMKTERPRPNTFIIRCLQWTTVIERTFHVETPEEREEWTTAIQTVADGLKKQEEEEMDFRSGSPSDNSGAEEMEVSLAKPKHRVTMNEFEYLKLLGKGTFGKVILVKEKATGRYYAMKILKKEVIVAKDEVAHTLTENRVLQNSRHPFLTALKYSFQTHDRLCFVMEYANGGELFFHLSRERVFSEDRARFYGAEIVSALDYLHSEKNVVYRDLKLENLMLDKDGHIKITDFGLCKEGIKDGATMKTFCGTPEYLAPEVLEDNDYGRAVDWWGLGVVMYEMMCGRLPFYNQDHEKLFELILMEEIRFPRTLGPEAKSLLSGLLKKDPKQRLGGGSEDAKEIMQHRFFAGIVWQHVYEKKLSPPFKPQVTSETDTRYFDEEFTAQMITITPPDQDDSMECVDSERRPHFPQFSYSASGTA
- measurementDescription: Inhibition of PKB/Akt activation in human overnight starved MCF7 cells assessed as phosphorylated Akt at Ser473 level at 50 ug/ml after 1 hr followed by treated with 1 ug/mL of insulin for 15 mins by Western blotting
recordedEndpoint: pIC50
pIC50 field: float, defined as -log10 of concentration (mol/L).

Request: Please look up its pIC50: CCc1ccc(OC(C)=O)c(Cc2cc(CCCl)ccc2OC(C)=O)c1
Response: 4.60

###

- measuredOn: RAC-alpha serine/threonine-protein kinase (Homo sapiens)
- measurementDescription: Inhibition of PKB activation in human overnight starved MCF7 cells assessed as phosphorylated Akt at Ser473 level at 50 ug/ml after 1 hr followed by treated with 1 ug/mL of insulin for 15 mins by Western blotting
Calls of active or inactive are those of the source. The rule behind the calls is not given here.
recordedEndpoint: inhibition of PKB activation (active/not active)

Examples with their reported inhibition of PKB activation (active/not active) follow.
- CCc1ccc(OC(C)=O)c(Cc2cc(CCCl)ccc2OC(C)=O)c1: Active
- CCc1ccc(OC(C)=O)c(Cc2ccccc2OC(C)=O)c1: inactive
- CCc1ccc(Cc2cc(CCCl)ccc2OC(C)=O)c(OC(C)=O)c1: Active
- CCc1ccc(OC(C)=O)c(Cc2cc(CC)ccc2OC(C)=O)c1: Active
- CC(=O)Oc1ccccc1Cc1cc(CCCl)ccc1OC(C)=O: Active

Request: Please look up its inhibition of PKB activation (active/not active): CC(=O)Oc1ccccc1Cc1ccccc1OC(C)=O
Response: inactive
